- Tested on: HL-60(TB) leukemia
- RUN_DESCRIPTION: NCI tumour cell line growth inhibition, 48 h; in the data active means GI50 below about 0.43 µM; inactive means the rest
Classes used: YES = active, NO = inactive

COMPOUND: Cc1cc(C2CC(O)C(CO)O2)c(Br)cc1Br (stereo not drawn)
ASSIGNED_LABEL: NO
//
COMPOUND: CCCN1CCN(c2ccc3nc(-c4ccc5nc(-c6ccc(OCC)cc6)[nH]c5c4)[nH]c3c2)CC1
ASSIGNED_LABEL: NO
//
COMPOUND: N/C(=N/O)NOCCC(N)C(=O)O (stereo not drawn)
ASSIGNED_LABEL: NO
//
COMPOUND: O=C(Nc1c(Cl)cccc1Cl)Oc1cccc2cccnc12
ASSIGNED_LABEL: NO
//
COMPOUND: CN1c2cccc[c]2[Sn]([CH3])([CH3])[c]2ccccc21
ASSIGNED_LABEL: YES
//
COMPOUND: O=C1NC(=O)/C(=C/c2ccc3nccc(-c4ccncc4)c3c2)S1
ASSIGNED_LABEL: YES
//
COMPOUND: CC(C)Cc1cc(-c2cccn2C)c(C#N)c(=O)[nH]1
ASSIGNED_LABEL: NO
//
COMPOUND: Nc1ncnc2c1ncn2Cc1ccc(CCl)cc1
ASSIGNED_LABEL: NO

====

- System: HL-60(TB) leukemia
- RUN_DESCRIPTION: NCI tumour cell line growth inhibition, 48 h
Recorded measurements of TGI, one per entry

MOLECULE: CNC(=O)/C(C#N)=C(\N)N1CCCC1
TGI: > 100 µM
--
MOLECULE: OCC1OC(NO)C(O)C(O)C1O (configuration not stated)
TGI: > 100 µM
--
MOLECULE: COC(=O)C1(N2CCOCC2)CCC([C@@H](c2ccccc2)C(C)[N+](=O)[O-])C1 (some centres not stated)
TGI: > 100 µM
--
MOLECULE: CC(C)C(N=C1CC2CCC1(C(=O)Nc1ccccc1O)C2(C)C)c1ccccc1 (configuration not stated)
TGI: > 10 µM
--
MOLECULE: O=C(NNC(=O)c1ccccc1O)c1cccs1
TGI: > 100 µM
--
MOLECULE: O=C1C2=C(c3ccccc31)C(c1ccc([N+](=O)[O-])cc1)NC(=S)N2 (configuration not stated)
TGI: > 100 µM
--
MOLECULE: Oc1ccc(Cl)cc1N=Nc1c(O)ccc2ccccc12
TGI: > 100 µM
--
MOLECULE: CC(C)Cc1cc(-c2cccn2C)c(C#N)c(=O)[nH]1
TGI: > 100 µM
--
MOLECULE: CC(C)C(C=O)C(O)(C(F)(F)F)C(F)(F)F (configuration not stated)
TGI: > 100 µM
--
MOLECULE: CC(C)(C)c1cc([Si](C)(C)C)c(C#N)c([Si](C)(C)C)c1
TGI: 44.2 µM
--
MOLECULE: CC1=NN(c2ccccc2)C(=O)C1N=Nc1ccc(Br)cc1C (configuration not stated)
TGI: > 100 µM
--
MOLECULE: COC(=O)[C@@]1(Cc2ccc(OC(C)=O)cc2)Cc2cc3ccccc3n2N1
TGI: 80.8 µM
--
MOLECULE: COc1ccc(NC(=O)CC2SC(=Nc3ccc(Cl)cc3C)NC2=O)c([N+](=O)[O-])c1 (configuration not stated)
TGI: > 100 µM
--
MOLECULE: COc1ccc(CC2OC3(CCCCC3)CC3CCCCN32)cc1 (configuration not stated)
TGI: > 100 µM
--
MOLECULE: Cc1cccc(N=Nc2ccc(O)c(CN(C)C)c2)c1
TGI: 54.2 µM
--
MOLECULE: COC(=O)C1=C(C(=O)OC)SC2(S1)C(C(=O)OC)=C(C(=O)OC)Sc1c2ssc1=O
TGI: 0.0492 µM
--
MOLECULE: C#Cc1cccc(NC(=O)C2CCCCN2C(=O)CCl)c1 (configuration not stated)
TGI: 51.7 µM
--
MOLECULE: Clc1cc2ns[s+]c2cc1Cl
TGI: > 87.2 µM
--
MOLECULE: CC(=O)O[C@H]1C(=O)[C@@]2(C)C(C(OC(=O)c3ccccc3)[C@]3(O)CC(OC(=O)C(O)C(NC(=O)c4cccc(Cl)c4)c4ccccc4)C(C)=C1C3(C)C)[C@]1(OC(C)=O)CO[C@@H]1C[C@@H]2O (some centres not stated)
TGI: 0.419 µM
--
MOLECULE: O=[N+]([O-])c1cc(-c2ccc([As](=O)(O)O)cc2)ccc1[As](=O)(O)O
TGI: > 100 µM
--
MOLECULE: Cn1c(=Nc2ccccc2[N+](=O)[O-])sc2ccccc21
TGI: > 100 µM
--
MOLECULE: CCCN1CCN(c2ccc3nc(-c4ccc5nc(-c6ccc(OCC)cc6)[nH]c5c4)[nH]c3c2)CC1
TGI: 3.55 µM
